Sourced from PubChem BioAssay (NCI)

Tested on: MDA-MB-468 breast
Assay: NCI-60 one-dose screen, 48 h
Conditions: 10 µM unless noted
About 83,000 compounds went through this panel and 20% of them were active in at least one assay; those are over-represented in the sample as a whole. The source made the active and inactive calls. Rule for the calls: active = growth percent below 10; inactive = the rest.
Outcome codes: class 1 (active), class 0 (inactive)

molecule: CN1CCN(CCNc2nc(-c3cccc(NS(=O)(=O)c4cccc5c(N(C)C)cccc45)c3)cs2)CC1
groupLabel: class 0

molecule: CC1(C)NCCC[C@]2(C)[C@H]3CC(=O)[C@H]4[C@@H]5C[C@](C)(CO)CC[C@]5(C)CC[C@@]4(C)[C@]3(C)CC[C@@H]12
groupLabel: class 0

molecule: Cc1ccc(-c2csc(N/N=C/c3nc4ccccc4n3C3CC3)n2)cc1
groupLabel: class 0

molecule: Fc1c[c-]c(-c2ccccn2)c(F)c1.[CH3-].[Pt+2].c1ccc(P(C[PH+](c2ccccc2)c2ccccc2)c2ccccc2)cc1
groupLabel: class 1

molecule: CC(C)(C)c1ccc([I+]c2ccc(C(C)(C)C)cc2)cc1
groupLabel: class 1

molecule: O=C(NN1C(=O)CSC1c1ccc(Cl)cc1)c1[nH]c2ccc(F)cc2c1-c1ccccc1 (centres undefined)
groupLabel: class 0

molecule: N#Cc1c(-c2ccc(O)cc2)c2c(N)nn(-c3ccccc3)c2[nH]c1=O
groupLabel: class 0

molecule: C#C[C@@]1(O)[C@@H](CO)O[C@@H](n2cc(F)c3c(N)ncnc32)[C@@H]1O
groupLabel: class 1

molecule: CCOc1ccc(S(=O)(=O)c2ccc(C)cc2)c2c1no[n+]2[O-]
groupLabel: class 0

* * *

This section presents compounds with their documented growth values.
Test system: MDA-MB-468 breast
Assay: NCI-60 one-dose screen, 48 h (100 = growth as untreated, 0 = no growth, -100 = all killed)
Details: 10 µM unless noted
The panel holds about 83,000 compounds, 20% with a hit somewhere; the sample as a whole holds those more often.
endpointLabel: growth (%)

compound: COc1ccc(C/C(C)=C(\c2ccc(Cl)cc2)c2ccc(OCCN3CCCCC3)cc2)cc1
unit: %
recordedResult: 98.2
//
compound: COc1cccc(N=CNc2cccc(OC)c2)c1
unit: %
recordedResult: 107
//
compound: COC(=O)c1c2c(c(C)[n+]([O-])c1C)C(=O)C(NCc1ccc(F)c(F)c1)=CC2=O
unit: %
recordedResult: -26.1
//
compound: CCCCN(C=S)CCCC
unit: %
recordedResult: 101
//
compound: CS(=O)(=O)c1nccc(-c2c(-c3ccc(F)c(OCc4ccc(F)cc4)c3)nc3sccn23)n1
unit: %
recordedResult: -37.2
//
compound: Cc1nc2ccccc2n1C(=O)C[C@@H]1NC(=S)NC1=O
unit: %
recordedResult: 95.7
//
compound: CCN(C(=O)N1CCN(c2cc3c(cc2F)c(=O)c(C(=O)O)cn3C2CC2)CC1)c1nc(-c2ccc(Cl)cc2)cs1
unit: %
recordedResult: -2.66
//
compound: COc1cc(-c2n/c(=C\c3c(O)[nH]c4ccc(Cl)cc34)cc3c2=Nc2ccccc2-3)ccc1F
unit: %
recordedResult: -7.14
//
compound: CCCCCCCCCCCCCCCCCC1OCC(COC(=O)O[C@]2(CC)C(=O)OCc3c2cc2n(c3=O)Cc3cc4ccccc4nc3-2)O1 (some centres undefined)
unit: %
recordedResult: 69.9

* * *

Listed next: entries and their corresponding growth.
Tested on: TK-10 renal
Assay: NCI-60 one-dose screen, 48 h (100 = growth as untreated, 0 = no growth, -100 = all killed)
Conditions: 10 µM
Compounds without any hit were thinned out: in the full panel of roughly 83,000, 20% have a hit.

compound: C#CCOc1cc(N(CC)CC)ccc1C(C(=O)NC(C)(C)C)N(C(=O)C1CCc2cc(F)ccc2O1)c1ccc(F)cc1F (centres undefined)
growth, %: 61.3
--
compound: Cn1cc(-c2nnc(N)nc2-c2c[nH]c3ccc(F)cc23)c2cc(Br)cnc21
growth, %: 45.5
--
compound: CCOc1ccc(/C=N/NC(=O)Cn2nc(Cc3ccc(OC)cc3)c3onc(C)c3c2=O)cc1
growth, %: 50.2
--
compound: O=C1NC2C=CC=CC2/C1=C1/SC(=S)N(C2CC(=O)N(c3ccc(Br)cc3)C2=O)C1=O (centres undefined)
growth, %: 124
--
compound: CCOC(=O)C1=C(N)N(c2ccc(C)cc2)C2=C(C(=O)CC(C)(C)C2)C1c1ccccc1Br (centres undefined)
growth, %: 110
--
compound: COc1cc(Nc2nc(O)c(/C=C3\C=Nc4ccccc43)s2)cc(OC)c1OC
growth, %: -35
--
compound: O=C(Nc1ccc(OCc2ccc(F)cc2)cc1)Nc1ccc(Cl)c(C(F)(F)F)c1
growth, %: 20.2
--
compound: O=C(c1ccc(Cl)cc1)C(c1c[nH]c2ccccc12)c1c[nH]c2ccccc12
growth, %: -62.2
--
compound: Cc1ccc2c(c1)C(=O)/C(=C/c1c[nH]c3ccccc13)S2
growth, %: 105
--
compound: COc1ccccc1-n1cc(C#N)c(N)c1C(=O)c1ccc(Cl)cc1Cl
growth, %: 55.8
--
compound: COC(=O)CNC(=O)COc1c(OC)c(OC)cc2oc(-c3cccc(C(=O)Nc4ccc(Cl)cc4)c3)cc(=O)c12
growth, %: 130
--
compound: Cn1cc(-c2cc(N)n3nc(-c4cn(C)c5ccccc45)cc3n2)c2cc(F)ccc21
growth, %: -58.6
--
compound: Cn1cc(-c2nc(N)nnc2-c2c[nH]c3ccccc23)c2cc(Br)cnc21
growth, %: 64.2
--
compound: COc1ccc(C(=O)COc2ccc(NC(=O)Nc3ccccc3)cc2)cc1
growth, %: 101
--
compound: CC1[C@H]2[C@H](C[C@H]3[C@@H]4CC=C5c6sc(Nc7cccc(Cl)n7)nc6CC[C@]5(C)[C@H]4CC[C@@]32C)O[C@]12CC[C@@H](C)CO2 (some centres undefined)
growth, %: 171
--
compound: COc1ccc(OC)c(-n2cc(C#N)c(N)c2C(=O)c2ccc(Cl)cc2Cl)c1
growth, %: 78.8
--
compound: COc1cccc(O)c1/C=C1\SCc2cc3c(OC)cccc3[o+]c21
growth, %: 111
--
compound: Cc1ccc2sc3c(c2c1)Oc1nc[nH]c(=O)c1C3c1cccc(F)c1 (centres undefined)
growth, %: 154
--
compound: COc1cc(C2CC(c3ccccc3)=Nc3c(N)nc(N)nc3N2)ccc1Oc1nc(NCCO)nc(N2CCOCC2)n1 (centres undefined)
growth, %: 110

* * *

Tested on: MDA-MB-468 breast
Assay: NCI-60 one-dose screen, 48 h (100 = growth as untreated, 0 = no growth, -100 = all killed)
Settings: 10 µM unless noted
This is part of a sample that, as a whole, favours compounds with a hit. Of some 83,000 tested, about 20% had one in any assay.
endpointLabel: growth (%)

molecule: O=C(C(=O)N1CCOCC1)c1ccc(OC2OC(CO)C(O)C(O)C2O)cc1 (centres undefined)
target: MDA-MB-468 breast
unit: %
recordedResult: 105
--
molecule: CCN(CC)CCNc1ccc(C)c2sc3cc(Cl)ccc3c(=O)c12
target: MDA-MB-468 breast
unit: %
recordedResult: 14.4
--
molecule: CCC(C)C1CCC(O)CC1 (centres undefined)
target: MDA-MB-468 breast
unit: %
recordedResult: 101
--
molecule: COc1ccc(-c2csc(NC(=O)CSc3nc(-c4ccccc4)cc(=O)[nH]3)n2)cc1
target: MDA-MB-468 breast
unit: %
recordedResult: 14.9
--
molecule: Nc1ccc(-c2cc3c(Nc4ccc(Oc5cccc(C(F)(F)F)c5)c(Cl)c4)ncnc3s2)cc1
target: MDA-MB-468 breast
unit: %
recordedResult: -9.82
--
molecule: Nc1nc(N=Nc2ccc(O)cc2)cc(=O)[nH]1
target: MDA-MB-468 breast
unit: %
recordedResult: 91.5
--
molecule: CCN(CC)CCSCCCNc1c2ccc(Cl)cc2nc2ccc(OC)cc12
target: MDA-MB-468 breast
unit: %
recordedResult: -50.2
--
molecule: Cn1ccnc1C(=O)/C=C/c1ccc(NC(=O)c2ccc(F)cc2)cc1
target: MDA-MB-468 breast
unit: %
recordedResult: 11.8
--
molecule: O=C(CCCCCCC(=O)Nc1ccccc1)NO
target: MDA-MB-468 breast
unit: %
recordedResult: 12.1
--
molecule: Nc1nc2c(c3cnccc13)C(c1cccc(Cl)c1)Cc1cnccc1-2 (centres undefined)
target: MDA-MB-468 breast
unit: %
recordedResult: -15.9
--
molecule: CCCCCCCCCCCCCCCCCCOP(=O)([O-])OC1CC[N+](C)(C)CC1
target: MDA-MB-468 breast
unit: %
recordedResult: 0
--
molecule: CCN(CC)CCCC(Nc1c2ccc(Cl)cc2nc2ccc(OC)cc12)c1ccc(F)cc1 (centres undefined)
target: MDA-MB-468 breast
unit: %
recordedResult: 90.5
--
molecule: NCCNC(=O)c1cccc(COc2ccccc2NC(=O)c2cc(Cl)c(Cl)[nH]2)c1
target: MDA-MB-468 breast
unit: %
recordedResult: 96
--
molecule: CNC(=O)c1ccccc1Nc1nc(Nc2cc(OC)c(OC)c(OC)c2)ncc1Br
target: MDA-MB-468 breast
unit: %
recordedResult: -46.6
--
molecule: Cc1nc2nc(N)nc(N)c2nc1C
target: MDA-MB-468 breast
unit: %
recordedResult: 97.6
--
molecule: CN1C(=O)/C(=C/c2ccc(C(=O)Nc3ncc(Cc4ccc(Cl)cc4)s3)cc2)SC1=S
target: MDA-MB-468 breast
unit: %
recordedResult: 25.2
--
molecule: CCn1nc(-c2ccccn2)c2cccnc2c1=S
target: MDA-MB-468 breast
unit: %
recordedResult: 48.8
--
molecule: COc1ccc2nc3cc(Cl)ccc3c(N3CCN(c4nccc(Nc5ccccc5)n4)CC3)c2c1
target: MDA-MB-468 breast
unit: %
recordedResult: 37.9
--
molecule: Nc1ncnc2c1c(-c1ccc(Oc3ccccc3)cc1)nn2C[C@H]1SSC[C@H]1O
target: MDA-MB-468 breast
unit: %
recordedResult: -5.04
--
molecule: CCCCCCCCCCCCCCCCC(=O)O
target: MDA-MB-468 breast
unit: %
recordedResult: 102
--
molecule: O=Nc1c(-c2c(O)[nH]c3cc(Br)ccc23)[nH]c2ccccc12
target: MDA-MB-468 breast
unit: %
recordedResult: -34.2
--
molecule: NC(=O)c1c(NC(=O)c2ccc3c(c2)OCO3)sc2c1CCC(=O)C2
target: MDA-MB-468 breast
unit: %
recordedResult: -35.3
--
molecule: COc1ccc2c(ccn2C(=O)N2c3ccccc3Sc3ccccc32)c1
target: MDA-MB-468 breast
unit: %
recordedResult: 21.8
--
molecule: O=C(Oc1c(Cl)c(Cl)c(Cl)c(Cl)c1Cl)C1CCCN1C(=O)OCc1ccccc1 (centres undefined)
target: MDA-MB-468 breast
unit: %
recordedResult: 11.9
--
molecule: C=CCn1c(SCC(=O)Nc2cccc(C(=O)/C=C/c3ccc(Cl)cc3)c2)nc2ccccc2c1=O
target: MDA-MB-468 breast
unit: %
recordedResult: 107
--
molecule: COc1cccc(-c2nc3sccn3c2-c2ccnc(NCCCNS(=O)(=O)c3cccc(Cl)c3)c2)c1
target: MDA-MB-468 breast
unit: %
recordedResult: 24.6
--
molecule: Nc1ncnc2c1ncn2C1OC(CO)C2OC21 (centres undefined)
target: MDA-MB-468 breast
unit: %
recordedResult: 93.5
--
molecule: CCCCCc1ccc(S(=O)(=O)Nc2cccc(-c3csc(NC(=O)CCCCCN4CCN(C)CC4)n3)c2)cc1
target: MDA-MB-468 breast
unit: %
recordedResult: 79
--
molecule: COc1cc(CNS(=O)(=O)c2ccc(C)cc2)ccc1OCc1cn(-c2ccccc2)nn1
target: MDA-MB-468 breast
unit: %
recordedResult: 70.7
--
molecule: CN1CCn2c(c(Sc3ccc(C(=O)NO)cc3)c3ccccc32)C1=O
target: MDA-MB-468 breast
unit: %
recordedResult: -39.2
--
molecule: Brc1ccc(Br)nn1
target: MDA-MB-468 breast
unit: %
recordedResult: -85.5
--
molecule: COC1=C(OC)C(=O)C(SC/C=C(\C)CCCC(C)CCCC(C)CCCC(C)C)=CC1=O (centres undefined)
target: MDA-MB-468 breast
unit: %
recordedResult: 42.6
--
molecule: CNCCCNCCCN1C(=O)c2ccc3c4c(ccc(c24)C1=O)C(=O)N(CCCNCc1ccccc1OC)C3=O
target: MDA-MB-468 breast
unit: %
recordedResult: -69.5
--
molecule: S=c1[nH]c2cc(Cl)ccc2o1
target: MDA-MB-468 breast
unit: %
recordedResult: 99
--
molecule: Cc1c(Cl)cccc1NC(=O)c1sc2nc3c(cc2c1N)COCC3
target: MDA-MB-468 breast
unit: %
recordedResult: 17.7
--
molecule: C/C(N)=C(\C#N)C(=O)c1ccccc1
target: MDA-MB-468 breast
unit: %
recordedResult: 97.7
--
molecule: COc1cc(OCc2cccc(Br)c2C)cc(OC)c1C=O
target: MDA-MB-468 breast
unit: %
recordedResult: 20.8
--
molecule: N#CC(C#N)N=Nc1ccc(Br)cc1
target: MDA-MB-468 breast
unit: %
recordedResult: 0.0168
--
molecule: COc1ccc(C(C)=O)c(OC)c1
target: MDA-MB-468 breast
unit: %
recordedResult: 97.7
--
molecule: Oc1c(CCl)cc(Cl)cc1Cc1cc(Cl)cc(Cc2cc(Cl)cc(CCl)c2O)c1O
target: MDA-MB-468 breast
unit: %
recordedResult: 18.8
--
molecule: COc1cc(-c2csc(NC(=O)Nc3ccc(Cl)cc3)n2)cc(OC)c1OC
target: MDA-MB-468 breast
unit: %
recordedResult: 13.5
--
molecule: CC(SC(C)C(=O)N/N=C/c1cccc(Cl)c1)C(=O)N/N=C\c1cccc(Cl)c1 (centres undefined)
target: MDA-MB-468 breast
unit: %
recordedResult: 97.4
--
molecule: O=C(O)c1ccc2c(c1Cl)C(=O)c1ccccc1C2=O
target: MDA-MB-468 breast
unit: %
recordedResult: 88.9
--
molecule: O=C(O)CCC(=O)OC[C@@H](NC(=O)C(Cl)Cl)[C@H](O)c1ccc([N+](=O)[O-])cc1
target: MDA-MB-468 breast
unit: %
recordedResult: 95.5
